Catalogue of inhibition values
- target.or.test.system: Botulinum neurotoxin type A (Clostridium botulinum)
- test.details: BoNT/A light chain protease inhibitors, biochemical, multiplex microsphere flow cytometry, validation set (AID 588460)
- test.settings: at 10 µM, active compounds read high
Report only the number, with the unit % understood.

Consider the worked cases shown below.
compound: O=C(O)C1CSC(c2ccc3c(c2)OCO3)N1 (configuration not stated)
target.or.test.system: Botulinum neurotoxin type A (Clostridium botulinum)
inhibition / %: 1.1
--
compound: NCCc1ccc(O)c(O)c1
target.or.test.system: Botulinum neurotoxin type A (Clostridium botulinum)
inhibition / %: -3.5
--
compound: Cn1c(SCC(=O)c2ccccc2)nnc1-c1ccncc1
target.or.test.system: Botulinum neurotoxin type A (Clostridium botulinum)
inhibition / %: 0.4
--
compound: c1ccc2c(c1)Nc1ccccc1S2
target.or.test.system: Botulinum neurotoxin type A (Clostridium botulinum)
inhibition / %: 0.5
--
compound: CCOc1ccc(NC2OC(C)C(O)C(O)C2O)c([N+](=O)[O-])c1 (configuration not stated)
target.or.test.system: Botulinum neurotoxin type A (Clostridium botulinum)
inhibition / %: -0.7
--
compound: CCC(C(=O)OCCN(CC)CC)c1ccccc1 (configuration not stated)
target.or.test.system: Botulinum neurotoxin type A (Clostridium botulinum)
inhibition / %: 0.3

Item `CC(=O)N/C(=C/c1ccc2c(c1)OCO2)C(=O)NCCO` has what recorded inhibition?
0.6
